# credit: DBAASP

System: Bacillus subtilis 168
Listing of recorded MIC by entry.
Express the result in µM but write the number alone.

{"columns": ["Smiles Str", "Metric", "Reported Result"],
 "data": [
  ["CC[C@H](C)[C@H](NC(=O)[C@H](CC(C)C)NC(=O)[C@H](CCCCN)NC(=O)CNC(=O)[C@H](CC(C)C)NC(=O)[C@@H](NC(=O)[C@H](CCCCN)NC(=O)[C@H](CO)NC(=O)[C@H](Cc1c[nH]c2ccccc12)NC(=O)[C@H](CCCCN)NC(=O)CN)[C@@H](C)CC)C(=O)N[C@@H](CCCN=C(N)N)C(N)=O", "MIC", 1.7]
]}

Continue with the compound presented below.
Give the observed MIC of CC(C)C[C@H](NC(=O)[C@H](CC(C)C)NC(=O)[C@H](CCCCN)NC(=O)CNC(=O)[C@H](CC(C)C)NC(=O)[C@H](CC(C)C)NC(=O)[C@H](CO)NC(=O)[C@H](CC(C)C)NC(=O)[C@H](CC(C)C)NC(=O)[C@@H]1CCCN1C(=O)[C@H](CC(C)C)NC(=O)[C@H](CC(C)C)NC(=O)CN)C(N)=O for Bacillus subtilis 168.
3.12

----------
These records show MIC for Escherichia coli ATCC 25922.
Express the result in µM but write the number alone.

{"columns": ["Molecule", "MIC / µM"],
 "data": [
  ["CC[C@H](C)[C@H](N)C(=O)N[C@@H](CC(C)C)C(=O)N1CCC[C@H]1C(=O)N[C@@H](Cc1c[nH]c2ccccc12)C(=O)N[C@@H](CCCCN)C(=O)N[C@@H](Cc1c[nH]c2ccccc12)C(=O)N1CCC[C@H]1C(=O)N[C@@H](Cc1c[nH]c2ccccc12)C(=O)N[C@@H](Cc1c[nH]c2ccccc12)C(=O)N1CCC[C@H]1C(=O)N[C@@H](Cc1c[nH]c2ccccc12)C(=O)N[C@@H](CCCCN)C(=O)N[C@@H](CCCCN)C(N)=O [ILPWKWPWWPWKK]", 16]
]}

Give the observed MIC of CC[C@H](C)[C@H](N)C(=O)N[C@@H](CC(N)=O)C(=O)N[C@@H](CC(C)C)C(=O)N[C@@H](CCCCN)C(=O)N[C@@H](CCCCN)C(=O)N[C@@H](CC(C)C)C(=O)N[C@@H](C)C(=O)N[C@@H](C)C(=O)N[C@@H](CCCN=C(N)N)C(=O)N[C@H](C(=O)N[C@@H](CCCCN)C(=O)N[C@@H](CCCCN)C(=O)N[C@@H](CCCCN)C(=O)N[C@H](C(N)=O)[C@@H](C)CC)[C@@H](C)CC [INLKKLAARIKKKI] for Escherichia coli ATCC 25922.
4

----------
These records show MIC for Escherichia coli ATCC 25922.
Express the result in µM but write the number alone.

As a guide, the following entries are already answered.
{"columns": ["Smiles Str", "Assay System", "Unit Annotation", "MIC"],
 "data": [
  ["CC[C@H](C)[C@H](N)C(=O)N[C@@H](Cc1c[nH]c2ccccc12)C(=O)N[C@@H](CCCN=C(N)N)C(=O)N[C@H](C(=O)N[C@@H](Cc1ccccc1)C(=O)N[C@@H](CCCN=C(N)N)C(N)=O)[C@@H](C)CC", "Escherichia coli ATCC 25922", "µM", 128],
  ["CC[C@H](C)[C@H](NC(=O)CN)C(=O)N[C@@H](CC(C)C)C(=O)N[C@@H](CC(=O)O)C(=O)N[C@@H](C)C(=O)N[C@H](C(=O)N[C@@H](CCCCN)C(=O)N[C@@H](C)C(=O)N[C@H](C(=O)N[C@@H](C)C(=O)N[C@@H](CCCCN)C(=O)N[C@@H](C)C(=O)N[C@@H](C)C(=O)NCC(N)=O)[C@@H](C)CC)[C@@H](C)CC", "Escherichia coli ATCC 25922", "µM", 24.4]
]}

Continue with the compound presented below.
Give the observed MIC of CC(C)C[C@H](NC(=O)[C@H](C)NC(=O)[C@H](CCCCN)NC(=O)[C@H](CC(C)C)NC(=O)[C@H](CC(C)C)NC(=O)[C@H](CCCCN)NC(=O)[C@H](CCCCN)NC(=O)[C@H](CC(C)C)NC(=O)[C@H](CC(C)C)NC(=O)[C@H](CCCCN)NC(=O)[C@H](CC(C)C)NC(=O)[C@H](CC(C)C)NC(=O)[C@@H](N)CCCCN)C(=O)NCC(N)=O for Escherichia coli ATCC 25922.
20

----------
Tested on: Staphylococcus epidermidis KCTC 1917
Listing of recorded MIC by entry.
Express the result in µM but write the number alone.

{"columns": ["Compound", "MIC / µM"],
 "data": [
  ["CC[C@H](C)[C@H](NC(=O)[C@H](CCCCN)NC(=O)[C@H](CCCCN)NC(=O)[C@H](CC(C)C)NC(=O)[C@@H](N)CCCCN)C(=O)N[C@@H](Cc1c[nH]c2ccccc12)C(=O)N[C@@H](Cc1c[nH]c2ccccc12)C(=O)N[C@H](C(=O)N[C@@H](CCCCN)C(=O)N[C@H](C(=O)N[C@@H](CCCCN)C(=O)N[C@@H](CCCCN)C(N)=O)C(C)C)[C@@H](C)CC [KLKKIWWIKVKK]", 3.91],
  ["CC[C@H](C)[C@H](NC(=O)[C@H](CS)NC(=O)[C@H](Cc1cnc[nH]1)NC(=O)[C@H](C)NC(=O)[C@H](C)N)C(=O)N[C@H](C(=O)N[C@@H](CC(C)C)C(=O)N[C@@H](Cc1cnc[nH]1)C(=O)N[C@@H](Cc1cnc[nH]1)C(=O)N[C@@H](CC(N)=O)C(N)=O)C(C)C [AAHCIVLHHN]", 15]
]}

Continue with the compound presented below.
Give the observed MIC of CC(C)[C@H](NC(=O)[C@H](Cc1c[nH]c2ccccc12)NC(=O)[C@H](CCCCN)NC(=O)[C@H](CCCCN)NC(=O)[C@@H](NC(=O)[C@H](Cc1c[nH]c2ccccc12)NC(=O)[C@H](CCCCN)NC(=O)[C@H](CCCCN)NC(=O)[C@@H](NC(=O)[C@H](Cc1c[nH]c2ccccc12)NC(=O)[C@@H](N)CCCCN)C(C)C)C(C)C)C(=O)N[C@@H](CCCCN)C(N)=O [KWVKKWVKKWVK] for Staphylococcus epidermidis KCTC 1917.
4

----------
System: Salmonella typhimurium
Metric: MIC

As a guide, the following entries are already answered.
{"columns": ["Smiles Str", "Reported Result"],
 "data": [
  ["CC(C)C[C@H](NC(=O)[C@H](C)NC(=O)[C@H](Cc1c[nH]c2ccccc12)NC(=O)[C@H](CC(C)C)NC(=O)[C@@H](N)Cc1ccccc1)C(=O)N[C@@H](Cc1ccccc1)C(=O)N[C@@H](CCCCN)C(=O)N[C@H](C(=O)N[C@@H](C)C(=O)N[C@@H](CO)C(=O)N[C@@H](CCCCN)C(=O)O)C(C)C", "≥ 153 µM"],
  ["CC[C@H](C)[C@H](NC(=O)CNC(=O)CNC(=O)[C@@H](NC(=O)[C@@H](N)Cc1ccccc1)[C@@H](C)CC)C(=O)N[C@H](C(=O)N[C@@H](CO)C(=O)N[C@@H](Cc1ccccc1)C(=O)N[C@H](C(=O)N[C@@H](CCCCN)C(=O)N[C@@H](CCCCN)C(=O)N[C@@H](CC(C)C)C(=O)N[C@@H](Cc1ccccc1)C(=O)O)[C@@H](C)CC)[C@@H](C)CC", "≥ 33.7 µM"],
  ["CC(C)C[C@H](NC(=O)[C@H](CC(C)C)NC(=O)[C@H](Cc1cnc[nH]1)NC(=O)[C@H](CO)NC(=O)[C@H](CC(C)C)NC(=O)[C@H](C)NC(=O)[C@H](Cc1cnc[nH]1)NC(=O)[C@H](Cc1ccccc1)NC(=O)[C@H](CC(C)C)NC(=O)[C@H](C)NC(=O)CNC(=O)[C@H](CC(C)C)NC(=O)[C@@H](N)Cc1ccccc1)C(=O)O", "≥ 64 µM"],
  ["CC(C)C[C@H](NC(=O)[C@@H](NC(=O)[C@H](CCCCN)NC(=O)[C@H](CO)NC(=O)[C@H](C)NC(=O)[C@@H](NC(=O)[C@H](CCCCN)NC(=O)[C@H](Cc1ccccc1)NC(=O)[C@H](CC(C)C)NC(=O)[C@H](C)NC(=O)CNC(=O)[C@H](CC(C)C)NC(=O)[C@@H](N)Cc1ccccc1)C(C)C)C(C)C)C(=O)O", "≥ 71.8 µM"]
]}

Continue with the molecule presented below.
Entry CC(C)C[C@H](NC(=O)[C@H](C)NC(=O)CNC(=O)[C@H](CC(C)C)NC(=O)[C@@H](N)Cc1ccccc1)C(=O)N[C@@H](Cc1ccccc1)C(=O)N[C@@H](CCCCN)C(=O)N[C@H](C(=O)N[C@@H](C)C(=O)N[C@@H](CO)C(=O)N[C@@H](Cc1c[nH]c2ccccc12)C(=O)O)C(C)C needs its MIC filled in; supply it.
≥ 161 µM
